- target desc: Microtubule-associated protein tau (Homo sapiens)
- test name: qHTS Assay for Tau Filament Binding;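 further: actives lower thioflavin S fluorescence by blocking filaments or displacing dye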
- measurement context: recombinant tau filaments, thioflavin S fluorescence, 15 h, filaments grown with octadecylsulfate alongside compound; series mostly up to 57.1 µM
The whole screen tested about 71,000 compounds, of which about 1,400 (2%) were called active. Not shown: some 3% with an inconclusive outcome. The call rests on the fitted dose curve; in most records, active means well fitted curve in the direction sought with a large enough effect; inconclusive means small, poorly fitted or top-dose-only effect; inactive means no such curve, though single readings can be large or run the other way. For the sample, actives were picked, then their nearest neighbours and some compounds at random.
Return exactly one item of Yes = active, No = inactive

Q: Tell me the recorded outcome of this test for O=C(c1csnn1)N1CCC2(CC1)CN(c1ncccn1)C2 .
A: No

Q: Tell me the recorded outcome of this test for Cc1cc(C(=O)O)ccc1[N+](=O)[O-] .
A: No

Q: Tell me the recorded outcome of this test for CCOc1cc(C(=S)N2CCOCC2)ccc1O .
A: No

Q: Tell me the recorded outcome of this test for CCNC(=S)NCC .
A: No

Q: Tell me the recorded outcome of this test for CN1CCN(c2ccc(NC(=O)COc3ccc(Cl)cc3Cl)cc2)CC1 .
A: No

Q: Tell me the recorded outcome of this test for CCCCCCc1ccc(O)cc1O .
A: No

Q: Tell me the recorded outcome of this test for CC(Sc1nc2ccccc2c(=O)n1Cc1ccco1)C(=O)c1ccccc1 (centres undefined) .
A: No

Q: Tell me the recorded outcome of this test for Oc1ccc(-c2csc(Nc3cccnc3)n2)cc1 .
A: No

Q: Tell me the recorded outcome of this test for Cn1c(-c2ccco2)nc2cc3ccccc3cc21 .
A: No

Q: Tell me the recorded outcome of this test for O=C(O)CC(C(=O)O)C(CC(=O)O)C(=O)O (centres undefined) .
A: No

Q: Tell me the recorded outcome of this test for C[C@]1(C(=O)NCCc2c[nH]c3ccccc23)C=C[C@@H](Cc2ccccc2)N1C(=O)c1ccccc1 .
A: No

Q: Tell me the recorded outcome of this test for COC(=O)[C@@]1(Cc2ccc(F)cc2)[C@@H]2[C@@H](CC(=O)[C@H]2CC(=O)C(=O)N2CCCC2)CN1C(=O)c1ccccc1 .
A: No

Q: Tell me the recorded outcome of this test for CC(=O)N1CCC2(CC1)CCN(c1ccncc1)CC2 .
A: No

Q: Tell me the recorded outcome of this test for CCNc1ncc2ncc(=O)n(CCc3ccccc3)c2n1 .
A: No

Q: Tell me the recorded outcome of this test for CC(=O)N1CCN(c2ccc(NCc3ccc(C(C)C)cc3)cc2)CC1 .
A: Yes

Q: Tell me the recorded outcome of this test for CC(Cc1ccccc1)C(=O)N(C)Cc1ccccc1 (centres undefined) .
A: No

Q: Tell me the recorded outcome of this test for COc1ccc(OC)c(Nc2nc(-c3ccc(O)c(O)c3)cs2)c1 .
A: Yes

Q: Tell me the recorded outcome of this test for CCCC(Cl)CCCC(Cl)CCC(Cl)CCC(Cl)CCC(Cl)CCCC(Cl)CCC (centres undefined) .
A: No

Q: Tell me the recorded outcome of this test for Cc1nn2c3ccccc3nc2n(C)c1=O .
A: No

Q: Tell me the recorded outcome of this test for C[N+](C)(C)CCCCCNCC12CC3CC(CC(C3)C1)C2 .
A: Yes

Q: Tell me the recorded outcome of this test for O=C(CSc1nnc(-c2cccnc2)n1Cc1ccco1)c1ccc(Cl)cc1 .
A: No

Q: Tell me the recorded outcome of this test for O=C(c1cnccn1)N1CCC2(CCN(Cc3cc(C(F)(F)F)cc(C(F)(F)F)c3)CC2)CC1 .
A: No

Q: Tell me the recorded outcome of this test for Clc1cccc(-c2nc3nc4ccccc4nc3n2Cc2ccco2)c1 .
A: Yes

Q: Tell me the recorded outcome of this test for Cc1c(C(=O)OCC(=O)N(CCC#N)c2ccccc2)oc2c1ccc1ccccc12 .
A: No

----------
- target desc: Microtubule-associated protein tau (Homo sapiens)
- test name: qHTS Assay for Tau Filament Binding;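 further: actives lower thioflavin S fluorescence by blocking filaments or displacing dye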
- measurement context: recombinant tau filaments, thioflavin S fluorescence, 15 h, filaments grown with octadecylsulfate alongside compound; series mostly up to 57.1 µM
The campaign covered roughly 71,000 compounds. About 1,400 (2%) were called active. Not shown: some 3% with an inconclusive outcome. The call rests on the fitted dose curve; in most records, active means well fitted curve in the direction sought with a large enough effect; inconclusive means small, poorly fitted or top-dose-only effect; inactive means no such curve, though single readings can be large or run the other way. For the sample, actives were picked, then their nearest neighbours and some compounds at random.
Return exactly one item of t = active, f = inactive

Q: Tell me the recorded outcome of this test for CC(C)[C@H](CO)Nc1nc(Nc2cc(N)cc(Cl)c2)c2ncn(C(C)C)c2n1 .
A: t

Q: Tell me the recorded outcome of this test for COc1cc(-c2nn3c(-c4cccc(C)c4)nnc3s2)cc(OC)c1OC .
A: f

Q: Tell me the recorded outcome of this test for O=c1c(CCc2ccccc2)nc2cncnc2n1C1CC1 .
A: f

Q: Tell me the recorded outcome of this test for COCCNc1ncnc2ccc(-c3ccccc3CN(C)C)cc12 .
A: f

Q: Tell me the recorded outcome of this test for C/C=C/C=C/C(=O)O .
A: f

Q: Tell me the recorded outcome of this test for Cc1ccc(/C(=C/CN2CCCC2)c2ccccn2)cc1 .
A: f

Q: Tell me the recorded outcome of this test for O=C1c2ccccc2C(O)N1Cc1ccccc1 (stereo not drawn) .
A: f

Q: Tell me the recorded outcome of this test for COc1ccc(NC(=O)c2ccc(OC)cc2)cc1 .
A: f

Q: Tell me the recorded outcome of this test for COc1ccc(C(=O)N/N=C2/C(=O)c3c(C)cc(C)cc3CC2(C)C)cc1 .
A: t

Q: Tell me the recorded outcome of this test for Brc1ccc(OCCn2ccnc2)cc1 .
A: f

Q: Tell me the recorded outcome of this test for O=c1nc(N2CCOCC2)nc2n1CCO2 .
A: f

Q: Tell me the recorded outcome of this test for CCCCC(CC)CN (stereo not drawn) .
A: f

Q: Tell me the recorded outcome of this test for c1ccc(-c2cc(-c3nnc4sc(-c5ccccn5)nn34)[nH]n2)cc1 .
A: t

----------
- target desc: Microtubule-associated protein tau (Homo sapiens) (UniProt P10636)
- Sequence (P10636 whole entry, looked up): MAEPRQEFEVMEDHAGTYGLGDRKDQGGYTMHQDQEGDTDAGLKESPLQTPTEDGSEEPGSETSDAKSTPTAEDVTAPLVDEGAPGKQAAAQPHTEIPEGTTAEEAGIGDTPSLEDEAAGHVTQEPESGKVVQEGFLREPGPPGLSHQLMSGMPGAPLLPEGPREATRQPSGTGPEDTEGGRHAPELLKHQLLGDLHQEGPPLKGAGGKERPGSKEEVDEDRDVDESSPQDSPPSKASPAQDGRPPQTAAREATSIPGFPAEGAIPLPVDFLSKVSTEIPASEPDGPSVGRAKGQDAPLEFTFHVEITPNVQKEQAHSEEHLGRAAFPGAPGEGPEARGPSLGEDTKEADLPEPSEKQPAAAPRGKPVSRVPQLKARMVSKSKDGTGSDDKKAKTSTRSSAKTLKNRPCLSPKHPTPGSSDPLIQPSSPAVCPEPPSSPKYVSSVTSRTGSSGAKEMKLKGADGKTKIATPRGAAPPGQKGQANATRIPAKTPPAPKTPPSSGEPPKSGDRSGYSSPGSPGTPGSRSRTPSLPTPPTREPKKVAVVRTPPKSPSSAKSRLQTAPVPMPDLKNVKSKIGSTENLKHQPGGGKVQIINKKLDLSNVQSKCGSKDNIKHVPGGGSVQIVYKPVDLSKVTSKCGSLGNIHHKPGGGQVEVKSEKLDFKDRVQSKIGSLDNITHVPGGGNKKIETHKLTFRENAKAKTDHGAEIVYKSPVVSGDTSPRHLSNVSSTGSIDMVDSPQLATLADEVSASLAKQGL
- test name: qHTS Assay for Tau Filament Binding;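 further: actives lower thioflavin S fluorescence by blocking filaments or displacing dye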; on activity change, negative = inhibition: on the % scale 0 is the no-effect control and ±100 the full control effect
- measurement context: recombinant tau filaments, thioflavin S fluorescence, 15 h, filaments grown with octadecylsulfate alongside compound; series mostly up to 57.1 µM
Screen size: about 71,000 compounds; about 1,400 (2%) were called active. Inconclusive results (about 3%) are left out. The sample as a whole holds a higher share of actives than the screen did.
readout label: activity change, negative = inhibition

Form: compound = O=C1NC(=O)[C@@](Cc2ccccc2)(c2cccnc2)N1 ; activity change, negative = inhibition = -0.4% [at 11.4 µM] (inactive)

Form: compound = O=C(O)[C@H](CCc1ccccn1)c1ccccc1 ; activity change, negative = inhibition = -5.3% [at 11.4 µM] (inactive)

Form: compound = CO[C@@H]1/C=C\O[C@]2(C)Oc3c(C)c(O)c4c(O)c(c(CN(C)C)c(O)c4c3C2=O)NC(=O)/C(C)=C\C=C[C@@H](C)[C@@H](O)[C@H](C)[C@@H](O)[C@H](C)[C@H](OC(C)=O)[C@@H]1C ; activity change, negative = inhibition = 3.4% [at 11.4 µM] (inactive)

Form: compound = CC(C)CSC[C@@H]1O[C@H](n2cnc3c(N)nccc32)[C@H](O)[C@@H]1O ; activity change, negative = inhibition = -0.6% [at 11.4 µM] (inactive)

Form: compound = c1ccc2sc(SCCSc3nc4ccccc4s3)nc2c1 ; activity change, negative = inhibition = -3.1% [at 11.4 µM] (inactive)

----------
- target desc: Microtubule-associated protein tau (Homo sapiens)
- test name: qHTS Assay for Tau Filament Binding;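 further: actives lower thioflavin S fluorescence by blocking filaments or displacing dye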
- measurement context: recombinant tau filaments, thioflavin S fluorescence, 15 h, filaments grown with octadecylsulfate alongside compound; series mostly up to 57.1 µM
In all, about 71,000 compounds went through this assay and about 1,400 (2%) were called active. Roughly 3% stayed inconclusive and do not appear here. The call rests on the fitted dose curve; in most records, active means well fitted curve in the direction sought with a large enough effect; inconclusive means small, poorly fitted or top-dose-only effect; inactive means no such curve, though single readings can be large or run the other way. What follows is part of a selection rich in actives, with near analogues and random picks from the rest. Non-standard residues stand in square brackets, D forms with d. Residues, ends and D or L forms follow the SMILES beside them. ξ: configuration not given here. ξV = CC(C)C(N)C(=O)O
Return exactly one item of active, inactive

Q: Tell me the recorded outcome of this test for CC(=O)NC(C(=O)NCC(N)=O)C(C)C (stereo unspecified) (Ac-[ξV]-Gly-NH2) .
A: inactive

Q: Tell me the recorded outcome of this test for COc1ccc(N=Cc2c(O)[nH]c3ccccc23)cc1OC .
A: active

Q: Tell me the recorded outcome of this test for Cn1cccc1C(=O)N1CCC2(CC1)CN(c1cccc(-c3ccccc3)c1)C2 .
A: inactive

Q: Tell me the recorded outcome of this test for COc1ccc(CCNC(=O)CCCCn2c(=O)[nH]c3ccccc3c2=O)cc1OC .
A: inactive

Q: Tell me the recorded outcome of this test for O=C1C(=O)N(CCN2CCOCC2)C(c2ccccn2)/C1=C(/O)c1ccc(Cl)cc1 (stereo unspecified) .
A: inactive

Q: Tell me the recorded outcome of this test for c1ccc(CSc2nnc(-c3ccco3)c(-c3ccco3)n2)cc1 .
A: active

Q: Tell me the recorded outcome of this test for CN(C(=O)COc1ccccc1)c1nnc(-c2ccncc2)s1 .
A: inactive

Q: Tell me the recorded outcome of this test for CCOC(=O)Cn1c2c(c(-c3ccccc3OC)cc1=O)CCCC2 .
A: inactive

Q: Tell me the recorded outcome of this test for Nc1cc(=O)nc(SCc2ccccc2)n1Cc1ccco1 .
A: inactive

Q: Tell me the recorded outcome of this test for COc1ccc(COC(=O)c2n[nH]c3ccccc23)cc1F .
A: inactive

Q: Tell me the recorded outcome of this test for COCC(C)NC(=O)c1ccc(Cl)c(Cl)c1 (stereo unspecified) .
A: inactive
